# assayedSystem: recombinant human MGAT2 (Homo sapiens (Human), UniProt Q3SYC2)
# Sequence (Q3SYC2 whole entry): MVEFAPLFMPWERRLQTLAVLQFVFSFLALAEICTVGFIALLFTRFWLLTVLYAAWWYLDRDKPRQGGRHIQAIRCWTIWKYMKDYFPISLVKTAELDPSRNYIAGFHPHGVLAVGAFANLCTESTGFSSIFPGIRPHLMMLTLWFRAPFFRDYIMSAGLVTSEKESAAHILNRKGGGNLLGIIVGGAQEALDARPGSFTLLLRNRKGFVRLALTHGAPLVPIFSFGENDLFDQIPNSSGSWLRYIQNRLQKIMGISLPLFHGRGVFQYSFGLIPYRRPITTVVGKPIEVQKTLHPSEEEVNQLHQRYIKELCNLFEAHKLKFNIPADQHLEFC
# assayNotes: Measurement of human MGAT2 inhibitory activity
# Format: biochemical
# settings: read-out: IC50 (concentration exhibiting 50% enzyme inhibition), Table 52
pIC50: −log10 of the molar value.
measuredProperty: pIC50

The following compounds have reported results that may help.
compound | assayedSystem | pIC50
CS(=O)(=O)CC(=O)Nc1c2c(nn1-c1ccc(C#N)cn1)C[C@]1(CCc3cc(F)cc(F)c31)NC2=O [Compound I-284] | recombinant human MGAT2 (Homo sapiens (Human), UniProt Q3SYC2) | 8.03
O=C(NCc1c2c(nn1CCC1CC1)C[C@]1(CCc3cc(OCC(F)(F)F)ccc31)NC2=O)c1ncco1 [Compound I-150] | recombinant human MGAT2 (Homo sapiens (Human), UniProt Q3SYC2) | 7.00
O=C1N[C@@]2(CCc3cc(OCC(F)(F)F)ccc32)Cc2nn(CCC3CC3)c(NC(=O)C3CC(F)(F)C3)c21 [Compound I-184] | recombinant human MGAT2 (Homo sapiens (Human), UniProt Q3SYC2) | 7.17

[P] CS(=O)(=O)CC(=O)Nc1c2c(nn1CCCc1ccccc1)C[C@]1(CCc3cc(OCCCC(F)(F)F)ccc31)NC2=O [Compound I-50]
[Q] CS(=O)(=O)CC(=O)Nc1c2c(nn1-c1cccc(F)c1)C[C@]1(CCc3cc(OCC(F)(F)F)ccc31)NC2=O [Compound I-123]
[R] CS(=O)(=O)CC(=O)Nc1c2c(nn1-c1ccc(S(C)(=O)=O)cc1)C[C@]1(CCc3cc(OCCCC(F)(F)F)ccc31)NC2=O [Compound I-43]
[S] O=C1N[C@@]2(CCc3cc(OCC(F)(F)F)ccc32)Cc2nn(CCC3CC3)c(C(=O)NC3CS(=O)(=O)C3)c21 [Compound I-68]
-- ask Please put the entries in order of rising pIC50. The response must list the labels following the requested ordering.
-- reply S, R, P, Q
(S: 6.12, R: 6.47, P: 6.72, Q: 7.26)

###

# assayedSystem: recombinant human MGAT2 (Homo sapiens (Human), UniProt Q3SYC2)
# assayNotes: Measurement of human MGAT2 inhibitory activity
# Format: biochemical
# settings: read-out: IC50 (concentration exhibiting 50% enzyme inhibition), Table 53
pIC50: −log10 of the molar value.
measuredProperty: pIC50

Look over these answered cases.
structureSmiles | reportedMeasurement
CS(=O)(=O)CC(=O)Nc1c2c(nn1CCC1CC1)C[C@@]1(CCc3cc(OC4CC4)ccc31)NC2=O | 8.15
N#Cc1ccc(-n2nc3c(c2C(=O)NCC2(CO)COC2)C(=O)N[C@@]2(CCc4cc(OCC(F)(F)F)ccc42)C3)nc1 | 7.82
CS(=O)(=O)CC(=O)Nc1c2c(nn1-c1ccc(Cl)c(F)c1)C[C@]1(CCc3cc(OCC(F)(F)F)ccc31)NC2=O | 8.32
Cc1ccc(-n2nc3c(c2C(=O)NS(=O)(=O)C2CC2)C(=O)N[C@@]2(CCc4cc(OCC(F)(F)F)ccc42)C3)cc1F | 7.80
CS(=O)(=O)CC(=O)Nc1c2c(nn1CCC1CC1)C[C@@]1(CCc3cc(NC4CC(F)(F)C4)ccc31)NC2=O | 7.77
Cc1ccc(-n2nc3c(c2NC(=O)CS(C)(=O)=O)C(=O)N[C@@]2(C3)c3ccc(OCC(F)(F)F)cc3CC2(F)F)nc1 | 8.47

[I] CS(=O)(=O)CC(=O)Nc1c2c(nn1CCC1CC1)CC1(CN(c3ccc(C(F)(F)F)cc3)C1)NC2=O
[II] CS(=O)(=O)CC(=O)Nc1c2c(nn1-c1ccc(C#N)cn1)C1(Cc3cc(F)c(F)cc3C1)NC2=O
-- ask Between I and II , which one shows the smaller pIC50 number? Answer by stating the label of the chosen item.
-- reply II

[I] CS(=O)(=O)CC(=O)Nc1c2c(nn1CCOCC(F)F)C[C@]1(CCOc3cc(OCC(F)(F)F)ccc31)NC2=O
[II] Cc1ccc(-n2nc3c(c2NC(=O)CS(C)(=O)=O)C(=O)N[C@@]2(CCc4cc(C(F)(F)F)ccc42)C3)nc1
[III] N#Cc1ccc(-n2nc3c(c2C(=O)NS(=O)(=O)Cc2ccccc2)C(=O)N[C@@]2(CCc4cc(OCC(F)(F)F)ccc42)C3)nc1
-- ask Please produce an ascending ranking of these compounds based on pIC50. Please list the labels according to the requested order.
-- reply III, I, II
(III: 7.17, I: 7.49, II: 8.25)

[1] CS(=O)(=O)CC(=O)Nc1c2c(nn1CCc1ccccc1F)C[C@]1(CCc3cc(OCC(F)(F)F)ccc31)NC2=O
[2] CC(C)(O)CNC(=O)c1c2c(nn1-c1ccc(C#N)cn1)C[C@]1(CCc3cc(OCC(F)(F)F)ccc31)NC2=O
-- ask Which shows the larger pIC50 value: 1 or 2 ? State the label of the item chosen.
-- reply 1
(1: 7.57, 2: 7.22)

###

# assayedSystem: recombinant human MGAT2 (Homo sapiens (Human), UniProt Q3SYC2)
# assayNotes: Measurement of human MGAT2 inhibitory activity
# Type: biochemical
# settings: read-out: IC50 (concentration exhibiting 50% enzyme inhibition), Table 53
measuredProperty: IC50 (µM)

Examples with answers:
compound | unitInfo | reportedMeasurement
CC(C)(O)C1CN(c2ccc3c(c2)CC[C@@]32Cc3nn(CCC4CC4)c(NC(=O)CS(C)(=O)=O)c3C(=O)N2)C1 [II-63] | µM | 0.3
Cc1ccc(-n2nc3c(c2NC(=O)CS(C)(=O)=O)C(=O)N[C@](C)(c2ccc(OCC(F)(F)F)cc2F)C3)nc1 [II-94] | µM | 0.00381

[P] COc1ccc(-n2nc3c(c2NC(=O)CS(C)(=O)=O)C(=O)N[C@@]2(CCOc4cc(OCC(F)(F)F)ccc42)C3)cc1 [II-6]
[Q] N#Cc1ccc(-n2nc3c(c2C(=O)NCC2(O)COC2)C(=O)N[C@@]2(CCc4cc(OCC(F)(F)F)ccc42)C3)nc1 [II-118]
-- ask In the pair P and Q , the larger recorded IC50 belongs to which? Provide the label of your selected option as the answer.
-- reply P
(P: 0.019 µM, Q: 0.00626 µM)

###

# assayedSystem: recombinant human MGAT2 (Homo sapiens (Human), UniProt Q3SYC2)
# assayNotes: Measurement of human MGAT2 inhibitory activity
# Assay type: biochemical
# settings: read-out: IC50 (concentration exhibiting 50% enzyme inhibition), Table 53
measuredProperty: IC50 (nM)

structureSmiles | unitInfo | IC50
Cc1ccc(-n2nc3c(c2NC(=O)CS(C)(=O)=O)C(=O)N[C@@]2(CCc4cc(Cl)ccc42)C3)nc1 | nM | 7.55
CCOc1ccc([C@]2(C)Cc3nn(-c4ccc(C)cn4)c(NC(=O)CS(C)(=O)=O)c3C(=O)N2)c(F)c1 | nM | 5.86

Hey, just so you know, these numbers are from patent US11198695B2.
